- Read-out: Tissue Factor, F3 (gene 2152)
- assay procedure: BSK_LPS_TissueFactor: BioMAP Diversity Plus: LPS Assay for Tissue Factor Biomarker Activity (AID 2283084)
- condition: primary human HUVEC with PBMC; actives raise or lower the signal
Calls of active or inactive are those of the source. How the source made its calls: active means hit-call score of the fitted dose curve at least 0.9, where 1 is the maximum; inactive means score below 0.9.
The categories you may choose from are yes for active, no for inactive

Query: Hi, do you know how N#CN=C1SCCN1Cc1ccc(Cl)nc1 came out in this test?
Response: no

Query: Hi, do you know how O=c1n(Cl)c(=O)n(Cl)c(=O)n1Cl came out in this test?
Response: yes

Query: Hi, do you know how CC(C)Nc1nc(Cl)nc(NC(C)C)n1 came out in this test?
Response: no

Query: Hi, do you know how C=CCOC(=O)C(C)(C)OC(=O)c1cc(-n2c(=O)cc(C(F)(F)F)n(C)c2=O)ccc1Cl came out in this test?
Response: no

Query: Hi, do you know how CCOP(=S)(OCC)Oc1nc(Cl)n(C(C)C)n1 came out in this test?
Response: no

Query: Hi, do you know how COCc1cnc(C2=NC(C)(C(C)C)C(=O)N2)c(C(=O)O)c1 (configuration not stated) came out in this test?
Response: no

Query: Hi, do you know how CCOc1nc(C(Cl)(Cl)Cl)ns1 came out in this test?
Response: no

Query: Hi, do you know how CC(C)N1C(=O)N(c2ccccc2)CSC1=NC(C)(C)C came out in this test?
Response: yes

Query: Hi, do you know how CNC(=O)Oc1cccc2ccccc12 came out in this test?
Response: no

Query: Hi, do you know how CCOc1cc(C(C)(C)C)ccc1C1COC(c2c(F)cccc2F)=N1 (configuration not stated) came out in this test?
Response: yes

Query: Hi, do you know how CC1(C)C(C=C(Cl)Cl)C1C(=O)OC(C#N)c1cccc(Oc2ccccc2)c1 (configuration not stated) came out in this test?
Response: no

Query: Hi, do you know how N#Cc1c(Cl)cccc1Cl came out in this test?
Response: no

* * *

- tested system: Transcription factor Sp1 (Homo sapiens) (UniProt P08047)
- Sequence (P08047 whole entry, looked up): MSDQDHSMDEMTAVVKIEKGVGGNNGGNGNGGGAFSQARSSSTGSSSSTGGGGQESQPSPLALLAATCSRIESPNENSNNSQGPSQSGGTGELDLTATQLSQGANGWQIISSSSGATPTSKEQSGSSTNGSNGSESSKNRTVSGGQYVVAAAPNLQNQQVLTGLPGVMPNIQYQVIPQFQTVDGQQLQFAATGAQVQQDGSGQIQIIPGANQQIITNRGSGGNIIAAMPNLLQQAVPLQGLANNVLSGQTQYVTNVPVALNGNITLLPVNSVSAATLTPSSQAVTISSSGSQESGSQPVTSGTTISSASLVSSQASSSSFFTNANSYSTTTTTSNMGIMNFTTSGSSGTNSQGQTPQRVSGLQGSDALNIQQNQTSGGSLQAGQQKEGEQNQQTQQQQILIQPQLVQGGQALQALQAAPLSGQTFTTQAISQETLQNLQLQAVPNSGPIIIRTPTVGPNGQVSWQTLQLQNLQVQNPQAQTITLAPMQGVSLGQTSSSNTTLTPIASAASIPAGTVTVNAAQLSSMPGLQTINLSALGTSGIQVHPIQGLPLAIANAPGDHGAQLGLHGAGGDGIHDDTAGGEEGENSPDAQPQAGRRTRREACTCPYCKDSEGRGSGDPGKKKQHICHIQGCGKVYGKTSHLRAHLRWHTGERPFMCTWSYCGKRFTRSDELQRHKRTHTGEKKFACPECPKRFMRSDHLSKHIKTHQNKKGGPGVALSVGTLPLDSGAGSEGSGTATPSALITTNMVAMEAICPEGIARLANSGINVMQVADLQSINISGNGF
- assay procedure: ATG_Sp1_CIS: Attagene CIS-FACTORIAL HepG2 Assay for human Specificity Protein 1 (Sp1) (AID 2282961)
- condition: HepG2 Sp1 cis-reporter transcription, actives raise or lower the signal
Calls of active or inactive are those of the source. How the source made its calls: active means hit-call score of the fitted dose curve at least 0.9, where 1 is the maximum; inactive means score below 0.9.
The categories you may choose from are active, inactive

Query: Hi, do you know how O=C(Nc1ccccc1-c1ccc(Cl)cc1)c1cccnc1Cl came out in this test?
Response: active

Query: Hi, do you know how CC1(C)C(C(=O)OC(C#N)c2cccc(Oc3ccccc3)c2)C1(C)C (centres undefined) came out in this test?
Response: inactive

Query: Hi, do you know how C=CCOC(=O)C(C)(C)OC(=O)c1cc(-n2c(=O)cc(C(F)(F)F)n(C)c2=O)ccc1Cl came out in this test?
Response: inactive

Query: Hi, do you know how CS(=O)(=O)c1cc(C(F)(F)F)ccc1C(=O)c1cnoc1C1CC1 came out in this test?
Response: inactive

Query: Hi, do you know how CC1(C)CCC(=Cc2ccc(Cl)cc2)C1(O)Cn1cncn1 (centres undefined) came out in this test?
Response: inactive

Query: Hi, do you know how COc1cc(OC)nc(NC(=O)NS(=O)(=O)c2ncccc2OCC(F)(F)F)n1 came out in this test?
Response: inactive

Query: Hi, do you know how N#Cc1c[nH]cc1-c1cccc2c1OC(F)(F)O2 came out in this test?
Response: inactive

Query: Hi, do you know how CC(C)N1C(=O)N(c2ccccc2)CSC1=NC(C)(C)C came out in this test?
Response: inactive

Query: Hi, do you know how CC(C)NC(=O)N1CC(=O)N(c2cc(Cl)cc(Cl)c2)C1=O came out in this test?
Response: inactive

Query: Hi, do you know how CC(C)Oc1cccc(NC(=O)c2ccccc2C(F)(F)F)c1 came out in this test?
Response: inactive

Query: Hi, do you know how Nc1cnn(-c2ccccc2)c(=O)c1Cl came out in this test?
Response: inactive

Query: Hi, do you know how CN/C(=N\[N+](=O)[O-])NCc1cnc(Cl)s1 came out in this test?
Response: inactive

Query: Hi, do you know how COP(=O)(OC)O/C(C)=C/C(=O)N(C)C came out in this test?
Response: inactive

Query: Hi, do you know how CCNP(=S)(OC)O/C(C)=C/C(=O)OC(C)C (centres undefined) came out in this test?
Response: inactive

Query: Hi, do you know how Cc1cc(C)nc(Nc2ccccc2)n1 came out in this test?
Response: inactive

Query: Hi, do you know how COP(=S)(OC)SCn1nnc2ccccc2c1=O came out in this test?
Response: active

Query: Hi, do you know how CC(C)N1C(=O)c2ccccc2NS1(=O)=O came out in this test?
Response: inactive

Query: Hi, do you know how CC1(C)CON(Cc2ccccc2Cl)C1=O came out in this test?
Response: inactive

Query: Hi, do you know how CS(=O)(=O)c1ccc(C(=O)C2C(=O)CCCC2=O)c([N+](=O)[O-])c1 came out in this test?
Response: inactive

Query: Hi, do you know how CSC(=O)c1c(C(F)F)nc(C(F)(F)F)c(C(=O)SC)c1CC(C)C came out in this test?
Response: inactive

Query: Hi, do you know how Cc1cnc(C2=NC(C)(C(C)C)C(=O)N2)c(C(=O)O)c1 (centres undefined) came out in this test?
Response: inactive

Query: Hi, do you know how CCOc1nc(F)cc2nc(S(=O)(=O)Nc3c(Cl)cccc3Cl)nn12 came out in this test?
Response: inactive

Query: Hi, do you know how Cc1ccc(N=CN(C)C=Nc2ccc(C)cc2C)c(C)c1 came out in this test?
Response: inactive

Query: Hi, do you know how OC(c1ccc(Cl)cc1)(c1ccc(Cl)cc1)C(Cl)(Cl)Cl came out in this test?
Response: inactive

* * *

- Test system: zebrafish Peroxisome Proliferator-activated Receptor gamma (PPARg), gene 557037
- assay procedure: ATG_zfPPARg_XSP1: Attagene TRANS-FACTORIAL Multi-Species (XSP1) HepG2 Assay for zebrafish Peroxisome Proliferator-activated Receptor gamma (PPARg) (AID 2283801)
Inconclusive results are not listed. The source made the active and inactive calls. How the source made its calls: active means hit-call score of the fitted dose curve at least 0.9, where 1 is the maximum; inconclusive means response in the unintended direction; inactive means score below 0.9.
The categories you may choose from are True (active), False (inactive)

Query: Hi, do you know how CCN(CC)C(=O)C(C)Oc1cccc2ccccc12 (centres undefined) came out in this test?
Response: False

Query: Hi, do you know how COP(=S)(OC)Oc1ccc([N+](=O)[O-])c(C)c1 came out in this test?
Response: False

Query: Hi, do you know how CC1(C)C(C=C(Cl)Cl)C1C(=O)OC(C#N)c1cccc(Oc2ccccc2)c1 (centres undefined) came out in this test?
Response: True

Query: Hi, do you know how CSC(=O)c1c(C(F)F)nc(C(F)(F)F)c(C(=O)SC)c1CC(C)C came out in this test?
Response: False

* * *

- Read-out: Hypoxia-inducible factor 1-alpha (Homo sapiens) (UniProt Q16665)
- Sequence (Q16665 whole entry, looked up): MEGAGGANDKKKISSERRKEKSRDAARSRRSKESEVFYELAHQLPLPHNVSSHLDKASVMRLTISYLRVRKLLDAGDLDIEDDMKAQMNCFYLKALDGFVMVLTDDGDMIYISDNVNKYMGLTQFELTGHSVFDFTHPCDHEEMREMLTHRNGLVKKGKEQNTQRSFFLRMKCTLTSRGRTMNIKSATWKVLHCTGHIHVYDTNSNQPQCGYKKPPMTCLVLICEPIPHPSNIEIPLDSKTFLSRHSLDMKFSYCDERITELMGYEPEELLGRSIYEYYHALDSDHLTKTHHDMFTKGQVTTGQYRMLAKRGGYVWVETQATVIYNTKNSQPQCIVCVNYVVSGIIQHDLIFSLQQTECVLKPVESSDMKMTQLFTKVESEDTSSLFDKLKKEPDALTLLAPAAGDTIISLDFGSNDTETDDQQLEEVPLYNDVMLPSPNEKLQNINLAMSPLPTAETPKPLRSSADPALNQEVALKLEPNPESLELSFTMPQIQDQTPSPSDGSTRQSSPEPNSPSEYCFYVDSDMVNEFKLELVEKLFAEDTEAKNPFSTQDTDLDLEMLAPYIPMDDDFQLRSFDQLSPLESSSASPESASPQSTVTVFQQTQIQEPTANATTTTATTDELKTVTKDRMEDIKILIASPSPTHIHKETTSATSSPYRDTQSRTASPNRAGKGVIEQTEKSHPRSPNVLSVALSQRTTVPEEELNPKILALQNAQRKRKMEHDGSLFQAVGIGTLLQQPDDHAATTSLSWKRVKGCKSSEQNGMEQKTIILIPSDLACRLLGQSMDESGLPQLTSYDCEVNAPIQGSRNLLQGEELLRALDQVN
- assay procedure: LTEA_HepaRG_HIF1A: Life Technologies and Expression Analysis (LTEA) Assay for Hypoxia-inducible factor 1 (HIF1A) Trancription factor using HepaRG (AID 2283503);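 further: HIF1A transcript by TaqMan qRT-PCR normalized to ACTB GAPDH and POLR2A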
- condition: mRNA level, 48 h; actives raise or lower the signal
The source made the active and inactive calls. The calls were made as follows: active = hit-call score of the fitted dose curve at least 0.9, where 1 is the maximum; inactive = score below 0.9.
The categories you may choose from are T = active, F = inactive

Query: Hi, do you know how N#CN=C1SCCN1Cc1ccc(Cl)nc1 came out in this test?
Response: F

Query: Hi, do you know how COc1cc(OC)nc(NC(=O)NS(=O)(=O)c2ncccc2OCC(F)(F)F)n1 came out in this test?
Response: F

Query: Hi, do you know how CCOc1nc(F)cc2nc(S(=O)(=O)Nc3c(Cl)cccc3Cl)nn12 came out in this test?
Response: F

Query: Hi, do you know how CCOc1cc(C(C)(C)C)ccc1C1COC(c2c(F)cccc2F)=N1 (configuration not stated) came out in this test?
Response: F

Query: Hi, do you know how CCOc1nc(C(Cl)(Cl)Cl)ns1 came out in this test?
Response: F

Query: Hi, do you know how CCNP(=S)(OC)O/C(C)=C/C(=O)OC(C)C (configuration not stated) came out in this test?
Response: F

Query: Hi, do you know how N#Cc1c[nH]cc1-c1cccc2c1OC(F)(F)O2 came out in this test?
Response: T

Query: Hi, do you know how CN/C(=N\[N+](=O)[O-])NCc1cnc(Cl)s1 came out in this test?
Response: F

Query: Hi, do you know how COC(=O)NC(=S)Nc1ccccc1NC(=S)NC(=O)OC came out in this test?
Response: F

Query: Hi, do you know how CCSC(=O)N1CCCCCC1 came out in this test?
Response: F

Query: Hi, do you know how CCN(CC)c1nc(C)cc(OP(=S)(OC)OC)n1 came out in this test?
Response: F

Query: Hi, do you know how O=P(O)(O)CCCl came out in this test?
Response: F

Query: Hi, do you know how CCCN(CC)CC1COC2(CCC(C(C)(C)C)CC2)O1 (configuration not stated) came out in this test?
Response: F

Query: Hi, do you know how O=C1C2CC=CCC2C(=O)N1SC(Cl)(Cl)Cl (configuration not stated) came out in this test?
Response: F

Query: Hi, do you know how COc1ccc(-c2ccccc2)cc1NNC(=O)OC(C)C came out in this test?
Response: F

Query: Hi, do you know how CC(C)C1(C)N=C(c2ncccc2C(=O)O)NC1=O (configuration not stated) came out in this test?
Response: F

Query: Hi, do you know how Cc1cnc(C2=NC(C)(C(C)C)C(=O)N2)c(C(=O)O)c1 (configuration not stated) came out in this test?
Response: F

Query: Hi, do you know how Cn1c(-c2ccccc2)cc(-c2ccccc2)[n+]1C came out in this test?
Response: F

Query: Hi, do you know how CCCCC(O)(Cn1cncn1)c1ccc(Cl)cc1Cl (configuration not stated) came out in this test?
Response: T

Query: Hi, do you know how COCC(=O)N(c1c(C)cccc1C)C(C)C(=O)OC (configuration not stated) came out in this test?
Response: F

Query: Hi, do you know how Clc1nc(Cl)nc(Nc2ccccc2Cl)n1 came out in this test?
Response: F

Query: Hi, do you know how CC(C)Nc1nc(Cl)nc(NC(C)C)n1 came out in this test?
Response: F

Query: Hi, do you know how CS(=O)(=O)c1ccc(C(=O)C2C(=O)CCCC2=O)c([N+](=O)[O-])c1 came out in this test?
Response: F

Query: Hi, do you know how CCOP(=O)(OCC)Oc1nc(Cl)c(Cl)cc1Cl came out in this test?
Response: T

Query: Hi, do you know how CC(C)N1C(=O)c2ccccc2NS1(=O)=O came out in this test?
Response: F

Query: Hi, do you know how COP(=O)(OC)O/C(C)=C/C(=O)N(C)C came out in this test?
Response: F

Query: Hi, do you know how CN=C=S came out in this test?
Response: F

Attribution: PubChem BioAssay (EPA / NIEHS)
